assay: chemical genetic growth profiling, strain panel (AID 1159580);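 further: tested at 20 µM; growth read once vehicle control cultures reached saturation at 30 °C; 1 = growth at the plate median or of vehicle wells; lower values mean less growth of the strain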; conditions: S. cerevisiae deletion strains, growth OD, locus YEL037C, strain rad23, stronger effect = lower value
In all, about 5,500 compounds went through this assay and about 2,000 (36%) were called active. About 18% were inconclusive and are not listed. The list shows a part of the results.
Recorded normalized growth for the following compounds
Just the number, please, no unit after it.

Example compounds with recorded normalized growth:
{"smiles_text": "O=C(O[C@@H]1Cc2c(O)cc(O)cc2O[C@@H]1c1cc(O)c(=O)c2c(O)c(O)cc([C@H]3Oc4cc(O)cc(O)c4C[C@H]3OC(=O)c3cc(O)c(O)c(O)c3)c2c1)c1cc(O)c(O)c(O)c1", "readout_type": "normalized growth", "endpoint_result": 0.686}
{"smiles_text": "O=C(O[C@@H]1Cc2c(O)cc(O)cc2O[C@@H]1c1cc(O)c(=O)c2c(O)c(O)cc([C@H]3Oc4cc(O)cc(O)c4C[C@H]3O)c2c1)c1cc(O)c(O)c(O)c1", "readout_type": "normalized growth", "endpoint_result": 0.709}
{"smiles_text": "CCc1cc(C(N)=S)ccn1", "readout_type": "normalized growth", "endpoint_result": 0.999}

As a next step, examine the compound that follows.
Please report the recorded normalized growth for "COc1cc(OC)c2ccc(=O)oc2c1" .
0.961
